These entries and their values trace back to the supplement of paper PMC10567573.

// reported protein stability index per item
B1: ZNF449 (parent)
chain: FQEYDTDCEVFRQRFRQFQYREAA

# Variants of: B1
# assay.method.text: protein stability index of a GFP-peptide fusion (GPS, HEK-293T) (PSI 1-6); higher = more stable;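 note: lentivirally expressed fusions sorted by FACS into six bins by GFP to DsRed ratio, PSI derived from sequencing read proportions per bin multiplied by bin number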
# experimental.parameters: c terminus: a fixed tail appended
experimental.readout: protein stability index

{"columns": ["sequence.variant", "test.result"],
 "data": [
  ["C8D", 3.11],
  ["R21M", 2.69],
  ["F11E", 3.51],
  ["F18K", 1.76],
  ["A23D", 2.73],
  ["D7H", 2.12],
  ["R21Q", 2.96],
  ["R21D", 3.13],
  ["Y20I", 3.37],
  ["F18A", 3.02]
]}
